Let's look at some sequences and their measured MIC.
# Test system: Klebsiella pneumoniae
# Assay procedure: microbe, parasite or virus in culture
# Type: cell-based
# Experimental setup: Klebsiella pneumoniae (ATCC 10031, MIC control strain), RSC 814; CAA without human serum
Supply the numeric figure in mg/L, leaving out any unit text.

Task item: Reported MIC, sequence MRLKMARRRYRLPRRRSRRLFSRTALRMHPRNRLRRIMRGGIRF [Chp2] : ____
Reply: 4

Others:
Task item: For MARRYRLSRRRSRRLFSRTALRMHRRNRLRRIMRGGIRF [Chp4] , what is its reported MIC?
Reply: 4

Task item: Please give the measured MIC for this sequence: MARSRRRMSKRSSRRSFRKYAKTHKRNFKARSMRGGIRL [Ecp1]
Reply: 2

Task item: # query: MIC of entry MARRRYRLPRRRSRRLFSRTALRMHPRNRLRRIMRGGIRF [Chp6]
Reply: 4

Task item: Please look up its MIC: MARSRRRMSKRSSRRSFRKYAKSHKKNFKARSMRGGIRL [Ecp2]
Reply: 4

Task item: Fill blank: measured MIC of the sequence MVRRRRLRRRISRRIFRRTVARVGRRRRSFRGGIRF [Chp1] is ____.
Reply: 16

----------
Entries and their measured MIC follow.
# Tested on: P. aeruginosa strain CFS-1292
# Assay procedure: MIC in presence and absence of Survanta pulmonary surfactant
# Type: cell-based, Pseudomonas aeruginosa
# Experimental setup: CAA media + 0.19 mg/mL Survanta
Entry rule: numbers only, all in µg/mL.

Here is how some sequences turned out for MIC.
Task item: Which MIC is reported for this sequence? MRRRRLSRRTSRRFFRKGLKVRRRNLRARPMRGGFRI [Unp2]
Reply: 0.5

Task item: Which MIC is listed for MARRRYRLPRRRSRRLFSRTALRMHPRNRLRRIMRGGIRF [Chp6] ?
Reply: 0.5

Task item: Value lookup for MIC; key = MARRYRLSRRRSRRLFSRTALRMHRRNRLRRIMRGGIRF [Chp4]
Reply: 0.5

Continuing:
Task item: Would you mind telling me what MIC value was observed for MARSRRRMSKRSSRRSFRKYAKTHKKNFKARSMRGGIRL [Ecp3] ?
Reply: 0.5

Task item: Any idea what its MIC is? The sequence is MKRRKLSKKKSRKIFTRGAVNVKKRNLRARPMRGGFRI [Chp10]
Reply: 0.5

Task item: Entry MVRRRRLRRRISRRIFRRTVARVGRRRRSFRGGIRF [Chp1] : reported MIC = ?
Reply: 2

Task item: For the sequence shown here, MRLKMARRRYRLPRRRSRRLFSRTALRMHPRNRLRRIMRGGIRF [Chp2] , give the reported MIC.
Reply: 1

Task item: Fill in: MIC of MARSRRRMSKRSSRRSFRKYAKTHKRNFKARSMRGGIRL [Ecp1] is ___
Reply: 0.5

----------
// reported MIC per item
# Tested on: Pseudomonas aeruginosa
# Assay procedure: microbe, parasite or virus in culture
# Type: cell-based
# Experimental setup: P. aeruginosa (ATCC 25102, bacteriophage host), RSC 1114; CAA without human serum

# annotated cases, reported MIC shown
Task item: Please give the measured MIC for this sequence: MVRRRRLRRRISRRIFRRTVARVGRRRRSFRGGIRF [Chp1]
Reply: 8 µg/mL

Task item: Need MIC of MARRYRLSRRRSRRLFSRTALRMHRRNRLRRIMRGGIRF [Chp4] , thanks.
Reply: 4 µg/mL

Task item: Name the reported MIC value associated with the sequence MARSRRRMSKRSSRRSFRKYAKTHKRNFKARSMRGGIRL [Ecp1]
Reply: 2 µg/mL

Task item: Sample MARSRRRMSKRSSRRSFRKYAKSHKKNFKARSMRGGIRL [Ecp2] — what was its MIC?
Reply: 2 µg/mL

Task item: Find the recorded MIC belonging to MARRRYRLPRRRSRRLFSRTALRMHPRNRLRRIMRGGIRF [Chp6] and report it.
Reply: 2 µg/mL

New cases:
Task item: Return reported MIC; argument: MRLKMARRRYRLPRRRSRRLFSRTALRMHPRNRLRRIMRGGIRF [Chp2]
Reply: 4 µg/mL

----------
# Tested on: P. aeruginosa strain CFS-1292
# Assay procedure: Checkerboard assay (FICI) with antibiotics, P. aeruginosa
# Assay type: cell-based, Pseudomonas aeruginosa
# Experimental setup: combined with Chp2; P. aeruginosa CFS-1292
Antibiotic FIC values by entry
Reply with the value as a number alone.

In the examples that follow, each entry is paired with its recorded Antibiotic FIC.
Task item: Name the reported Antibiotic FIC value associated with the compound NC[C@H]1O[C@H](O[C@H]2[C@H](O)[C@@H](O[C@H]3O[C@H](CO)[C@@H](O)[C@H](N)[C@H]3O)[C@H](N)C[C@@H]2N)[C@H](N)C[C@@H]1O [tobramycin, reference compound]
Reply: 0.25

Task item: For the compound C[C@@H](O)[C@H]1C(=O)N2C(C(=O)O)=C(S[C@@H]3CN[C@H](C(=O)N(C)C)C3)[C@H](C)[C@H]12 [meropenem, reference compound] , what Antibiotic FIC is on record?
Reply: 0.25

For the next question, use this compound.
Task item: Which Antibiotic FIC reading was recorded for the compound NCC[C@H](O)C(=O)N[C@@H]1C[C@H](N)[C@@H](O[C@H]2O[C@H](CN)[C@@H](O)[C@H](O)[C@H]2O)[C@H](O)[C@H]1O[C@H]1O[C@H](CO)[C@@H](O)[C@H](N)[C@H]1O ?
Reply: 0.25

----------
# Test system: P. aeruginosa strain CFS-1292
# Assay procedure: MIC at pH 6, pH 7 and pH 8
# Assay type: cell-based, Pseudomonas aeruginosa
# Experimental setup: pH 7
Listed below: MIC values for each entry.
Enter the number, and then the unit.

Task item: Look up MIC for this sequence: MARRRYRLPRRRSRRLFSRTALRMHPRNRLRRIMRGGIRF [Chp6]
Reply: 0.25 mg/L

Task item: I would be grateful if you could share the reported MIC for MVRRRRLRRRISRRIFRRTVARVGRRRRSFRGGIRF [Chp1] .
Reply: 1 mg/L

Task item: For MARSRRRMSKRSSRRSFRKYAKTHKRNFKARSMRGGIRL [Ecp1] , what is its reported MIC?
Reply: 1 mg/L

Task item: Record request: MIC value, item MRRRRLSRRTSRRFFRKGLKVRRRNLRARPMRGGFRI [Unp2]
Reply: 0.5 mg/L

New cases:
Task item: Given the sequence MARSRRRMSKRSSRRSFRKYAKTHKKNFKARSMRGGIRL [Ecp3] , what is its reported MIC?
Reply: 2 mg/L

Task item: Recorded MIC of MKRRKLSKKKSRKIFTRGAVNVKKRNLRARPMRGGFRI [Chp10] , please.
Reply: 1 mg/L

Task item: // lookup MIC for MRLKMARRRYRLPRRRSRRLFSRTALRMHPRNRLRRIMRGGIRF [Chp2]
Reply: 0.5 mg/L

Task item: # query: MIC of entry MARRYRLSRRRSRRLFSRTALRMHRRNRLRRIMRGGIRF [Chp4]
Reply: 0.5 mg/L

----------
Documented MIC (μg/mL) against CFS-1292 in 100% CAA (1st run/2nd run) across a set of sequences
# Test system: carbapenem-resistant P. aeruginosa clinical isolate CFS-1292
# Assay procedure: MIC by modified CLSI broth microdilution against P. aeruginosa CFS-1292 (CAA, CAA + human serum)
# Type: cell-based, Pseudomonas aeruginosa
# Experimental setup: 100% CAA; 1st run or single value
Please state the figure in µg/mL; there is no need to write the unit.

Here is how some sequences turned out for MIC (μg/mL) against CFS-1292 in 100% CAA (1st run/2nd run).
Task item: # MIC (μg/mL) against CFS-1292 in 100% CAA (1st run/2nd run) lookup, item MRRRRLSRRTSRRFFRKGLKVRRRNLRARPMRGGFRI [Unp2]
Reply: 0.5

Task item: Look at this sequence and give its reported MIC (μg/mL) against CFS-1292 in 100% CAA (1st run/2nd run). MRKKMHKSLDKRVFNRTAKKSKKINVNPVVYRGGIRL [CDL907]
Reply: 8

Task item: Which MIC (μg/mL) against CFS-1292 in 100% CAA (1st run/2nd run) value belongs to MSLRRHKLSRKASKRIFRKGASRTKTLNTRATPMRGGFRI [Chp9] ?
Reply: 8

Shifting focus to the sequence that follows.
Task item: Given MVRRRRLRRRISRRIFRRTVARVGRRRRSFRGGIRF [Chp1] , state its recorded MIC (μg/mL) against CFS-1292 in 100% CAA (1st run/2nd run).
Reply: 1

----------
# Tested on: M. smegmatis
# Assay procedure: 45 hr MIC against M. smegmatis (NTM), Mueller Hinton broth
# Type: cell-based, Mycobacterium smegmatis
# Experimental setup: M. smegmatis MC^2 155, Run #1
API: label(entry) gives y if the entry's 45 hr MIC is strictly smaller than 4 µg/mL; on equality or larger values it gives n.

Would you please look over these solved cases?
Task item: Below 4 µg/mL on 45 hr MIC? Entry MTKRDIEYRKALGLNPSEPLPKIVGAVTRHGATLKRPRVTALAR [SBR77]
Reply: n

Task item: Determine whether this sequence shows 45 hr MIC lower than 4 µg/mL (ties excluded): MRKKMHKSLDKRVFNRTAKKSKKINVNPVVYRGGIRL [CDL907]
Reply: n

Task item: Dear colleague, could you confirm whether 45 hr MIC of MRRYNVNKGKSAKKFRKQVSKTKVANLRSNPMRGGWRL [Unp6] falls below 4 µg/mL? Thanks.
Reply: n

For the next question, use this sequence.
Task item: Dear colleague, could you confirm whether 45 hr MIC of MSSTLCRWAVKALRCTRVYKEFIWKPLVALSYVTLYLLSSVFLSQLSYPIGSWAV [Lvp1] falls below 4 µg/mL? Thanks.
Reply: n

Cited source: patent US20220401514A1
